// provenance: the Human Domainome abundance scans (Beltran et al. 2025)

B1: Triacylglycerol hydrolase DDHD2, residues 389 to 447; numbered along this chain, O94830 (parent)
chain: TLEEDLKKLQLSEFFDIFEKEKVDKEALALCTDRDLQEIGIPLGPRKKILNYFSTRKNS

- Variants of: B1
- test summary: abundance fitness (aPCA) (normalised: wild type 0, dead -1); higher = more abundant; growth selection in yeast, the domain comes from the species named
- assay context: Homo sapiens
Hi there, I'd appreciate the recorded abundance fitness for every entry that follows.

Below, 6 variants whose answers are already recorded.
E26T ... -0.173
L11W ... -1.12
D24P ... -0.561
L2Q ... -0.65
D33E ... -0.058
D35A ... -0.309

Hi there! I need abundance fitness for each item below, if you can.
1. K47A
2. N58R

0.296
-0.332

Quick request: abundance fitness for each listed item, please.
1. E26Q
2. I49Y
3. L28A
4. Q10T
5. Y52H
6. D35C

1. -0.107
2. -0.946
3. -0.352
4. -0.241
5. 0.231
6. -0.278

Quick batch: abundance fitness for everything below.
1. G40K
2. D35F
3. R56G
4. R34C
5. Y52C

1: -0.651; 2: -0.311; 3: -0.105; 4: 0.011; 5: -0.459

Dear colleague, could you send me abundance fitness for each of the items below? Thanks.
1. Y52L
2. K22E
3. D35S
4. D16A
5. K20F

1. -0.354
2. 0.141
3. -0.051
4. 0.026
5. -0.524

Please give abundance fitness, item by item, for the list that follows.
1. R56Q
2. F15A

1. 0.143
2. -0.005

For every record below, what is its abundance fitness?
1. D33F
2. L30S
3. L30C
4. L6E
5. E13L
6. A27F
7. R46K

-0.609
0.489
0.593
-0.765
-0.608
0.708
-0.338

Could you tell me abundance fitness for each of these variants? They are listed below.
1. L2P
2. L36M
3. L36V
4. D35E

1: -0.748; 2: -0.164; 3: -0.567; 4: 0.197

Consider the following items and state reported abundance fitness for each.
1. G40F
2. S12D
3. E38S
4. L6P

-0.865
0.037
-0.369
-0.35
